- assayedSystem: IKKβ (Homo sapiens)
- Construct: purchased Upstate Biotechnology Inc. 14-485
- Sequence (O14920 1-756): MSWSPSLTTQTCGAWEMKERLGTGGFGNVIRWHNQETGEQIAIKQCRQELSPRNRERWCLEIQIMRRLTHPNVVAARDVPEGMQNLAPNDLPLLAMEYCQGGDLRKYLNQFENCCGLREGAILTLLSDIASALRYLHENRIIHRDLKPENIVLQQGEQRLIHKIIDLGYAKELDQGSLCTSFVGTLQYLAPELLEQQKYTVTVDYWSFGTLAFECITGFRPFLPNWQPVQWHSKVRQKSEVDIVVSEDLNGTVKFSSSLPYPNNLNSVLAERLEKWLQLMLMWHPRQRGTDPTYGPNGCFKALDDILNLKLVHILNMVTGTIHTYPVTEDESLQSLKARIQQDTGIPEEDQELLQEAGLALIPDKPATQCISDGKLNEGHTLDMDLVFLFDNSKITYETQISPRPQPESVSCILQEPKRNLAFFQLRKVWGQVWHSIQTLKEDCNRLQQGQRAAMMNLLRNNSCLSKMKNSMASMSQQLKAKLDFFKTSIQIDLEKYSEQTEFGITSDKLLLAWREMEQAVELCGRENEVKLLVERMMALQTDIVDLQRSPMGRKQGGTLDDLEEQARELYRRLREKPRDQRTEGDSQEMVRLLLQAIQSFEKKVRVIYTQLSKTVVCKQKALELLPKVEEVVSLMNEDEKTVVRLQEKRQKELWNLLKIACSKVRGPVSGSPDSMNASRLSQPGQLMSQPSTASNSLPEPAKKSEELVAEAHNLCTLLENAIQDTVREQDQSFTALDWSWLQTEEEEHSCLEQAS
- assayName: IKKβ inhibition assay by fluorescence polarization (IMAP kit)
- Format: biochemical
- conditionInfo: test compound at 1 μM; inhibition rate exceeding 100% is indicated as 100%
assayReadout: inhibition at 1 µM (%)
Answers are plain numbers, in %.

# count of solved cases: 10
C#Cc1ccc2c(C(N)=O)c(NC(N)=O)[nH]c2c1 [Compound 10-1] ... 100
NC(=O)Nc1[nH]c2cc(C(F)(F)F)ccc2c1C(N)=O [Compound 2-16] ... 95
NC(=O)Nc1[nH]c2cc(Br)ccc2c1C(N)=O [Compound 3-1] ... 100
C[C@@H](O)c1cccc(-c2ccc3c(C(N)=O)c(NC(N)=O)[nH]c3c2)c1 [Compound 7-44] ... 100
N#Cc1cccc(-c2ccc3c(C(N)=O)c(NC(N)=O)[nH]c3c2)c1 [Compound 4-15] ... 100
CN(C)CC#Cc1ccc2c(C(N)=O)c(NC(N)=O)[nH]c2c1 [Compound 9-18] ... 94
C=Cc1ccc2c(C(N)=O)c(NC(N)=O)[nH]c2c1 [Compound 4-38] ... 100
NC(=O)Nc1[nH]c2cc(C#CCO)ccc2c1C(N)=O [Compound 9-2] ... 95
NC(=O)Nc1[nH]c2ccccc2c1C(N)=O [Compound 2-10, 2-Aminocarbonylaminoindole-3-carboxamide] ... 75
NC(=O)Nc1[nH]c2cc(CN3CCCC3)ccc2c1C(N)=O [Compound 24-2] ... 100

Lab note: each compound below needs its inhibition at 1 µM filled in.
1. CN(C)c1ccc2c(C(N)=O)c(NC(N)=O)[nH]c2c1 [Compound 2-4]
2. NC(=O)Nc1[nH]c2cc(-c3ccnc(Cl)c3)ccc2c1C(N)=O [Compound 7-26]
3. NC(=O)Nc1[nH]c2cc(NC(=O)Nc3ccccc3)ccc2c1C(N)=O [Compound 2-3]
4. CC(C)NCc1cccc(-c2ccc3c(C(N)=O)c(NC(N)=O)[nH]c3c2)c1 [Compound 13-5]
5. NC(=O)Nc1[nH]c2cc(C(=O)N3CCCC3)ccc2c1C(N)=O [Compound 22-2]
6. CNCc1ccc(-c2ccc3c(C(N)=O)c(NC(N)=O)[nH]c3c2)s1 [Compound 13-24]

[95, 98, 56, 100, 70, 98]

Lab note: each compound below needs its inhibition at 1 µM filled in.
1. NC(=O)Nc1[nH]c2cc(-c3ccc(F)cc3)ccc2c1C(N)=O [Compound 4-1]
2. NC(=O)Nc1[nH]c2cc(-c3cccs3)ccc2c1C(N)=O [Compound 4-8]
3. NC(=O)Nc1[nH]c2cc(NC(=O)c3ccccc3)ccc2c1C(N)=O [Compound 2-2]

1. 97
2. 100
3. 49

* * *

- assayedSystem: IKKβ (Homo sapiens, UniProt O14920)
- Construct: purchased Upstate Biotechnology Inc. 14-485
- assayName: IKKβ inhibition assay by fluorescence polarization (IMAP kit)
- Type: biochemical
- conditionInfo: test compound at 1 μM; inhibition rate exceeding 100% is indicated as 100%
Kindly supply the reported inhibition at 1 µM values for the records listed here.
Answers are plain numbers, in %.

# count of solved cases: 5
NC(=O)Nc1[nH]c2cc(C#Cc3ccccc3)ccc2c1C(N)=O ... 87
CCc1ccc2c(C(N)=O)c(NC(N)=O)[nH]c2c1 ... 95
C[C@H](O)c1cccc(-c2ccc3c(C(N)=O)c(NC(N)=O)[nH]c3c2)c1 ... 98
CCSCc1ccc2c(C(N)=O)c(NC(N)=O)[nH]c2c1 ... 100
NC(=O)Nc1[nH]c2cc(-c3cccnc3)ccc2c1C(N)=O ... 100

Please find the next compound below.
// inhibition at 1 µM lookup, key: "NC(=O)Nc1[nH]c2cc(-n3cccc3)ccc2c1C(N)=O"
100
